tested on: MALME-3M; assay: NCI-60 SRB screen; conditions: Homo sapiens, Malme-3M, 48 h, read-out: LC50, MALME-3M, 48 h
Reported values of CC50 for individual entries
Field: numeric (µM). Do not append units.

// worked examples, CC50 included
compound	CC50 [µM]
O=C(O)CCCCCN1C(=O)/C(=C/C=C/c2ccc([N+](=O)[O-])o2)SC1=S [14b]	2.85
O=C(O)CCN1C(=O)/C(=C/C=C/c2ccc([N+](=O)[O-])o2)SC1=S [12b]	4.25
CCCC(C(=O)O)N1C(=O)/C(=C/C=C/c2ccc([N+](=O)[O-])o2)SC1=S (centres unmarked)	6.4
CCCCC(C(=O)O)N1C(=O)/C(=C/C=C/c2ccc([N+](=O)[O-])o2)SC1=S (centres unmarked)	9.02

# lookup: CC50 of O=C(O)C(c1ccccc1)N1C(=O)/C(=C/C=C/c2ccc([N+](=O)[O-])o2)SC1=S (centres unmarked)
48.8

Taken from paper PMC12655351.
